As shown below, each of these compounds has a reported pIC50 value.
System: HT-29
assay-procedure: Antiproliferative activity against human HT-29 cells assessed as reduction in cell viability by MTT assay
Assay type: functional, cell-based
pIC50: −log10 of the molar value.

>  <compound>
NS(=O)(=O)c1ccc(Nc2ncc(/N=C/c3cccs3)c(NC3CCCC3)n2)cc1

>  <target>
HT-29

>  <censoring-operator>
=

>  <pIC50>
5.00

$$$$
>  <compound>
CC(C)Nc1nc(Nc2ccc(S(N)(=O)=O)cc2)ncc1/N=C/c1ccc(C(F)(F)F)cc1

>  <target>
HT-29

>  <censoring-operator>
<

>  <pIC50>
4.00

$$$$
>  <compound>
O=c1[nH]cc(F)c(=O)[nH]1 [FLUOROURACIL]

>  <target>
HT-29

>  <censoring-operator>
=

>  <pIC50>
4.79

$$$$
>  <compound>
CCOC(=O)/C=N/c1cnc(Nc2ccc(N3CCN(C)CC3)cc2)nc1NC(C)C

>  <target>
HT-29

>  <censoring-operator>
=

>  <pIC50>
5.12

$$$$
>  <compound>
CC(C)Nc1nc(Nc2ccc(N3CCN(C)CC3)cc2)ncc1/N=C/c1ccccc1

>  <target>
HT-29

>  <censoring-operator>
=

>  <pIC50>
4.92

$$$$
>  <compound>
CCOC(=O)/C=N/c1cnc(Nc2ccc(S(N)(=O)=O)cc2)nc1NC(C)C

>  <target>
HT-29

>  <censoring-operator>
<

>  <pIC50>
4.00

$$$$
